Measured tissue uptake at 1 h values are reported for all entries that follow.
Protocol details: Biodistribution in Jurkat tumor-bearing CB-17 SCID mice
Type: in vivo
Test context: female, CB-17 SCID, mouse, in vivo, iv, total radioactivity, Bone; 1 h p.i.; Jurkat xenograft, CB-17 SCID female mice; read-out: % iD/g Bone
Experimental: All animal experiments were conducted in accordance with general animal welfare regulations in Germany and the institutional guidelines for the care and use of animals. […] Approximately 0.5-20 MBq (0.02-0.20 nmol) of the ^125I-, ^177Lu-, ^99mTc-, ^18F- or ^68Ga-labeled ligand were injected into the tail vein of Jurkat tumor-bearing CB-17 SCID mice and the animals sacrificed after the respective biodistribution time. Selected organs were removed, weighted and measured in a γ-counter.
Positions of bridges follow the written chain, without caps; N, C: chain ends. Non-standard residues stand in square brackets, D forms with d. Residues, ends and D or L forms follow the SMILES beside them. Groups on a side chain read outwards from the residue. Chains are numbered I, II in the order given. *: point of attachment. X6 = CN1/C(=C/C=C/C=C/C2=[N+](CCCCCC(=O)*)c3ccc(S(=O)(=O)[O-])cc3C2(C)C)C(C)(C)c2cc(S(=O)(=O)O)ccc21; Tyr(3-I) = N[C@@H](Cc1ccc(O)c(I)c1)C(=O)O; 2Nal = N[C@@H](Cc1ccc2ccccc2c1)C(=O)O; d2Nal = N[C@H](Cc1ccc2ccccc2c1)C(=O)O; dNMeOrn = CN[C@H](CCCN)C(=O)O; Mercaptoacetyl = O=C(CS)*; 4Abz = Nc1ccc(C(=O)O)cc1; X1 = NCCNCC(CNCCN)C(=O)*; dDap = NC[C@@H](N)C(=O)O
Please give the number followed by its unit.

Worked cases, answers included:
Compound	Obs value
C[C@@H](NC(=O)[C@@H](CCCNC(=N)N)NC(=O)[C@@H](Cc1c[nH]cn1)NC(=O)[C@@H](CO)NC(=O)[C@@H](CO)NC(=O)[C@@H](CO)NC(=O)CS)C(=O)Nc1ccc(C(=O)NCCC[C@@H]2C(=O)N[C@@H](CCCNC(=N)N)C(=O)N[C@@H](Cc3ccc4ccccc4c3)C(=O)NCC(=O)N[C@H](Cc3ccc(O)cc3)C(=O)N2C)cc1 [Tc-CXCR4-5] (I: Mercaptoacetyl-[dS][dS][dS][dH][dR][dA][4Abz] / II: cyclo([dY][dNMeOrn]R[2Nal]G); amide I:C-II:2)	1.55 %ID/g
C[C@@H](NC(=O)[C@@H](CCCNC(=N)N)NC(=O)[C@@H](CN)NC(=O)C(CNCCN)CNCCN)C(=O)Nc1ccc(C(=O)NCCC[C@@H]2C(=O)N[C@@H](CCCNC(=N)N)C(=O)N[C@@H](Cc3ccc4ccccc4c3)C(=O)NCC(=O)N[C@H](Cc3ccc(O)cc3)C(=O)N2C)cc1 [Tc-CXCR4-14] (cyclo([dY][dNMeOrn]([4Abz-dA-dR-dDap-X1])R[2Nal]G))	1.31 %ID/g

Alright, here's another compound for you.
Lookup: Please give the measured tissue uptake at 1 h for this compound: C[C@@H](NC(=O)[C@@H](CCCNC(=N)N)NC(=O)[C@@H](CN)NC(=O)CCCCC[N+]1=C(/C=C/C=C/C=C2/N(C)c3ccc(S(=O)(=O)O)cc3C2(C)C)C(C)(C)c2cc(S(=O)(=O)[O-])ccc21)C(=O)Nc1ccc(C(=O)NCCC[C@@H]2C(=O)N[C@@H](CCCNC(=N)N)C(=O)N[C@H](Cc3ccc4ccccc4c3)C(=O)NCC(=O)N[C@@H](Cc3ccc(O)c(I)c3)C(=O)N2C)cc1 [CXCR4-OI-2] (cyclo([Tyr(3-I)][dNMeOrn]([4Abz-dA-dR-dDap-X6])R[d2Nal]G))
Found: 1.2 %ID/g

###

Measured tissue uptake at 1 h values are reported for all entries that follow.
Protocol details: Biodistribution in Jurkat tumor-bearing CB-17 SCID mice
Assay type: in vivo
Test context: female, CB-17 SCID, mouse, in vivo, iv, total radioactivity, Pancreas; 1 h p.i.; Jurkat xenograft, CB-17 SCID female mice; read-out: % iD/g Pancreas
Procedure: All animal experiments were conducted in accordance with general animal welfare regulations in Germany and the institutional guidelines for the care and use of animals. […] Approximately 0.5-20 MBq (0.02-0.20 nmol) of the ^125I-, ^177Lu-, ^99mTc-, ^18F- or ^68Ga-labeled ligand were injected into the tail vein of Jurkat tumor-bearing CB-17 SCID mice and the animals sacrificed after the respective biodistribution time. Selected organs were removed, weighted and measured in a γ-counter.
Positions of bridges follow the written chain, without caps; N, C: chain ends. Non-standard residues stand in square brackets, D forms with d. Residues, ends and D or L forms follow the SMILES beside them. Groups on a side chain read outwards from the residue. Chains are numbered I, II in the order given. *: point of attachment. X6 = CN1/C(=C/C=C/C=C/C2=[N+](CCCCCC(=O)*)c3ccc(S(=O)(=O)[O-])cc3C2(C)C)C(C)(C)c2cc(S(=O)(=O)O)ccc21; Tyr(3-I) = N[C@@H](Cc1ccc(O)c(I)c1)C(=O)O; 2Nal = N[C@@H](Cc1ccc2ccccc2c1)C(=O)O; d2Nal = N[C@H](Cc1ccc2ccccc2c1)C(=O)O; dNMeOrn = CN[C@H](CCCN)C(=O)O; Mercaptoacetyl = O=C(CS)*; 4Abz = Nc1ccc(C(=O)O)cc1; X1 = NCCNCC(CNCCN)C(=O)*; dDap = NC[C@@H](N)C(=O)O
# number only, unit %ID/g dropped from output

Compound	tissue uptake at 1 h [%ID/g]
C[C@@H](NC(=O)[C@@H](CCCNC(=N)N)NC(=O)[C@@H](CN)NC(=O)C(CNCCN)CNCCN)C(=O)Nc1ccc(C(=O)NCCC[C@@H]2C(=O)N[C@@H](CCCNC(=N)N)C(=O)N[C@@H](Cc3ccc4ccccc4c3)C(=O)NCC(=O)N[C@H](Cc3ccc(O)cc3)C(=O)N2C)cc1 [Tc-CXCR4-14] (cyclo([dY][dNMeOrn]([4Abz-dA-dR-dDap-X1])R[2Nal]G))	0.56
C[C@@H](NC(=O)[C@@H](CCCNC(=N)N)NC(=O)[C@@H](Cc1c[nH]cn1)NC(=O)[C@@H](CO)NC(=O)[C@@H](CO)NC(=O)[C@@H](CO)NC(=O)CS)C(=O)Nc1ccc(C(=O)NCCC[C@@H]2C(=O)N[C@@H](CCCNC(=N)N)C(=O)N[C@@H](Cc3ccc4ccccc4c3)C(=O)NCC(=O)N[C@H](Cc3ccc(O)cc3)C(=O)N2C)cc1 [Tc-CXCR4-5] (I: Mercaptoacetyl-[dS][dS][dS][dH][dR][dA][4Abz] / II: cyclo([dY][dNMeOrn]R[2Nal]G); amide I:C-II:2)	0.4

Alright, here's another compound for you.
Lookup: Please give the measured tissue uptake at 1 h for this compound: C[C@@H](NC(=O)[C@@H](CCCNC(=N)N)NC(=O)[C@@H](CN)NC(=O)CCCCC[N+]1=C(/C=C/C=C/C=C2/N(C)c3ccc(S(=O)(=O)O)cc3C2(C)C)C(C)(C)c2cc(S(=O)(=O)[O-])ccc21)C(=O)Nc1ccc(C(=O)NCCC[C@@H]2C(=O)N[C@@H](CCCNC(=N)N)C(=O)N[C@H](Cc3ccc4ccccc4c3)C(=O)NCC(=O)N[C@@H](Cc3ccc(O)c(I)c3)C(=O)N2C)cc1 [CXCR4-OI-2] (cyclo([Tyr(3-I)][dNMeOrn]([4Abz-dA-dR-dDap-X6])R[d2Nal]G))
Found: 1.1

###

Tested on: CXCR4-expressing Chem_1 cells
Protocol details: Determination of internalization, dual tracer with 125I-Fc-131
Assay type: cell-based
Test context: 90 min
Positions of bridges follow the written chain, without caps; N, C: chain ends. Non-standard residues stand in square brackets, D forms with d. Residues, ends and D or L forms follow the SMILES beside them. Groups on a side chain read outwards from the residue. Chains are numbered I, II in the order given. *: point of attachment. X9 = NCCNCC(CNCCN)C(=O)NC[C@@H](NC(=O)CC[C@@H](NC(=O)N[C@H](CCC(=O)O)C(=O)O)C(=O)O)C(=O)*; X8 = NCCNCC(CNCCN)C(=O)NC[C@@H](NC(=O)CCC(NC(=O)N[C@H](CCC(=O)O)C(=O)O)C(=O)O)C(=O)*; 2Nal = N[C@@H](Cc1ccc2ccccc2c1)C(=O)O; dNMeOrn = CN[C@H](CCCN)C(=O)O; HYNIC = NNc1ccc(C(=O)*)cn1; Mercaptoacetyl = O=C(CS)*; 4Abz = Nc1ccc(C(=O)O)cc1; dDap = NC[C@@H](N)C(=O)O; Ahx = NCCCCCC(=O)O
Measured Internalization [% Fc-131] values are reported for all entries that follow.

Worked cases, answers included:
Compound	Internalization [% Fc-131]
C[C@@H](NC(=O)[C@@H](CCCNC(=N)N)NC(=O)[C@@H](Cc1c[nH]cn1)NC(=O)[C@@H](CNC(=O)c1ccc([Si](F)(C(C)(C)C)C(C)(C)C)cc1)NC(=O)CC[C@H](C(=O)O)N1CCN(CC(=O)O)CCN(CC(=O)O)CCN(CC(=O)O)CC1)C(=O)Nc1ccc(C(=O)NCCC[C@@H]2C(=O)N[C@@H](CCCNC(=N)N)C(=O)N[C@@H](Cc3ccc4ccccc4c3)C(=O)NCC(=O)N[C@H](Cc3ccc(O)cc3)C(=O)N2C)cc1 [CXCR4-SiFA-2 [Ga]]	562 % Fc-131
C[C@@H](NC(=O)[C@@H](CCCNC(=N)N)NC(=O)[C@@H](CN)NC(=O)[C@@H](CNC(=O)C(CNCCN)CNCCN)NC(=O)CCC(NC(=O)N[C@H](CCC(=O)O)C(=O)O)C(=O)O)C(=O)Nc1ccc(C(=O)NCCC[C@@H]2C(=O)N[C@@H](CCCNC(=N)N)C(=O)N[C@@H](Cc3ccc4ccccc4c3)C(=O)NCC(=O)N[C@H](Cc3ccc(O)cc3)C(=O)N2C)cc1 (stereo partly drawn) [Tc-CXCR4-15] (cyclo([2Nal]G[dY][dNMeOrn]([4Abz-dA-dR-dDap-X8])R))	232 (90 min) % Fc-131
C[C@@H](NC(=O)[C@@H](CCCNC(=N)N)NC(=O)[C@@H](CN)NC(=O)CCCCCNC(=O)[C@@H](CNC(=O)C(CNCCN)CNCCN)NC(=O)CC[C@@H](NC(=O)N[C@H](CCC(=O)O)C(=O)O)C(=O)O)C(=O)Nc1ccc(C(=O)NCCC[C@@H]2C(=O)N[C@@H](CCCNC(=N)N)C(=O)N[C@@H](Cc3ccc4ccccc4c3)C(=O)NCC(=O)N[C@H](Cc3ccc(O)cc3)C(=O)N2C)cc1 [Tc-CXCR4-16] (cyclo([2Nal]G[dY][dNMeOrn]([4Abz-dA-dR-dDap-Ahx-X9])R))	284 (90 min) % Fc-131
C[C@@H](NC(=O)[C@@H](CCCNC(=N)N)NC(=O)[C@@H](CN)NC(=O)c1ccc(NN)nc1)C(=O)Nc1ccc(C(=O)NCCC[C@@H]2C(=O)N[C@@H](CCCNC(=N)N)C(=O)N[C@@H](Cc3ccc4ccccc4c3)C(=O)NCC(=O)N[C@H](Cc3ccc(O)cc3)C(=O)N2C)cc1 [Tc-CXCR4-13] (cyclo([dY][dNMeOrn]([4Abz-dA-dR-dDap-HYNIC])R[2Nal]G))	503 (90 min) % Fc-131
C[C@@H](NC(=O)[C@@H](CCCNC(=N)N)NC(=O)[C@@H](CN)NC(=O)CCCCCNC(=O)[C@@H](CNC(=O)CC[C@H](C(=O)O)N1CCN(CC(=O)O)CCN(CC(=O)O)CCN(CC(=O)O)CC1)NC(=O)C[N+](C)(C)Cc1ccc([Si](F)(C(C)(C)C)C(C)(C)C)cc1)C(=O)Nc1ccc(C(=O)NCCC[C@@H]2C(=O)N[C@@H](CCCNC(=N)N)C(=O)N[C@@H](Cc3ccc4ccccc4c3)C(=O)NCC(=O)N[C@H](Cc3ccc(O)cc3)C(=O)N2C)cc1 [CXCR4-SiFA-6 [Ga]]	980 % Fc-131

Lookup: Please give the measured Internalization [% Fc-131] for this compound: C[C@@H](NC(=O)[C@@H](CCCNC(=N)N)NC(=O)[C@@H](CN)NC(=O)[C@@H](CO)NC(=O)[C@@H](CO)NC(=O)[C@@H](CO)NC(=O)CS)C(=O)Nc1ccc(C(=O)NCCC[C@@H]2C(=O)N[C@@H](CCCNC(=N)N)C(=O)N[C@@H](Cc3ccc4ccccc4c3)C(=O)NCC(=O)N[C@H](Cc3ccc(O)cc3)C(=O)N2C)cc1 [Tc-CXCR4-6] (I: Mercaptoacetyl-[dS][dS][dS][dDap][dR][dA][4Abz] / II: cyclo([dY][dNMeOrn]R[2Nal]G); amide I:C-II:2)
Found: 525 (90 min) % Fc-131
